System: MS2 coat protein
Test: apparent KD of MS2 coat protein; designed switch direction (-1 OFF switch, 1 ON switch): -1; higher = weaker reporter binding
Conditions: input ligand: none
Classify as follows. Reported apparent KD of MS2 coat protein greater than or equal to 100 nM: True. Reported apparent KD of MS2 coat protein below: False.

Could you please find out whether UUAAAUCAUGUAGGAUAUGCGUGGAGAAGCUAUGCAGAAGGACAUGAGGAUCACCCAUGUGCUUCCGUCUGCGUACAGAUGGUA [Mat - Exclusion NG 1 - Mod of JL - D7] (Eterna round: R96, puzzle: Exclusion NG 1) has apparent KD of MS2 coat protein that meets 100 nM or exceeds it? False

State whether the measured apparent KD of MS2 coat protein reaches 100 nM, counting equality as reaching it, for UCGCUCCGUGUAGGAUAUCGUUGUACCCUGCGGCGAGAAGGACAUGAGGAUCACCCAUGUAUGUUAUUAUCACGCGUGGCGCAC [Design 70] (Eterna round: R96, puzzle: Exclusion NG 1) False

Textbook exercise: given the entry GAAUAGCGAGGAUAUACAUGAGGAUCACCCAUGUGAUCCUUAGGCUGUUCAAGCCAAUGUAGAAGGCGCAAAUU [jl-ex3.4.58 ViennaUCT mod] (Eterna round: R97, puzzle: Exclusion 3) , state whether its apparent KD of MS2 coat protein is greater than or equal to 100 nM. True

Reported apparent KD of MS2 coat protein at or above 100 nM? GUUACACAUGAGGAUCACCCAUGUGAGGAUAUGGAUUCGUUGCAAGUAGGCGAUGGAUCCAGAAGGCGCGUGAG [JR_Ex1_Sub080] (Eterna round: R97, puzzle: Exclusion 1) False
